Value source: paper PMC5609566

Target: Mammalian Ca^2+-ATPase (Oryctolagus cuniculus)
Construct: from tissue; host or cells: rabbit hind leg muscle, sarcoplasmic reticulum membranes (gift, Aarhus University)
Sequence (P04191 1-994 isoform P04191-2): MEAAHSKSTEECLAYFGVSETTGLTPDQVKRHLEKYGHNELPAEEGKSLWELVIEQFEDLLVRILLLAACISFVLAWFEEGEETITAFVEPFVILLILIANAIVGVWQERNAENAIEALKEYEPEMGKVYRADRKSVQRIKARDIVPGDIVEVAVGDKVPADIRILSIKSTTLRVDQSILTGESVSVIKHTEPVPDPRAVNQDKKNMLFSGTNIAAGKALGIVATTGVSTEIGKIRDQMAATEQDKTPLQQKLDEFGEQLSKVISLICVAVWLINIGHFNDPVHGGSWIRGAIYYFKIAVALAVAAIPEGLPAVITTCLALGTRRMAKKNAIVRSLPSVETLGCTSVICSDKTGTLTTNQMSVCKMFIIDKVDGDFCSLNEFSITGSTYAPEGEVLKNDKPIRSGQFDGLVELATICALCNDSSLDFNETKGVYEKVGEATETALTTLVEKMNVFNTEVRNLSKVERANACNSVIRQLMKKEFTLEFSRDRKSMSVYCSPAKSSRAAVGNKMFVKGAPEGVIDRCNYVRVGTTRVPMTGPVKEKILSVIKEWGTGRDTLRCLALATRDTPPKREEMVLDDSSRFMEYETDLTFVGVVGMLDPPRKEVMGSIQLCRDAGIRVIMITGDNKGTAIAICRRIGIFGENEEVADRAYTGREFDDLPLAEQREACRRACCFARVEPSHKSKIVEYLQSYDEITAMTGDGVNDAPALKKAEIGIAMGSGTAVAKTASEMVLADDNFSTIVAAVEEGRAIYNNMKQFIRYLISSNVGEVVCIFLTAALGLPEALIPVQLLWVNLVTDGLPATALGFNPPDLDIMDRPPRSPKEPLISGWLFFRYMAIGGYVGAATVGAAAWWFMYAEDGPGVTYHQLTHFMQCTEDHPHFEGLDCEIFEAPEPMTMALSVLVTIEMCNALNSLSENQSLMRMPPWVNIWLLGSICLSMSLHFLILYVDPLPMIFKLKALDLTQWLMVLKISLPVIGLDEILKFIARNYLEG
Assay: Colorimetric ATPase assay, rabbit sarcoplasmic reticulum membranes (SERCA)
Format: biochemical
Details: pH 7, n = 3; read-out: ATP hydrolysis IC50 Mammalian Ca^2+-ATPase
endpoint name: pIC50
Please report pIC50 as the negative decimal logarithm of the molar concentration, giving only the number.

{"molecule": "CCC(C)NCC(O)Cn1c2ccc(Cl)cc2c2cc(Cl)ccc21 (centres unmarked)", "pIC50": 6.52}

Turning to the following molecule.
Q: For the molecule OC(CN1CCOCC1)Cn1c2ccc(Cl)cc2c2cc(Cl)ccc21 (centres unmarked) , give its reported pIC50.
Ans: 4.71

###

Test system: Escherichia coli ATCC 25922
endpoint name: MIC

{"compound": "CN1CCN(CC(O)Cn2c3ccc(Cl)cc3c3cc(Cl)ccc32)CC1 (stereo not shown) [Compound 8]", "test system": "Escherichia coli ATCC 25922", "data value": "75 µM"}

Q: Lab note: Escherichia coli ATCC 25922 assay, enter MIC for OC(CN1CCOCC1)Cn1c2ccc(Cl)cc2c2cc(Cl)ccc21 (stereo not shown) [Compound 7] here
Ans: > 75 µM

Q: Give MIC only, for O=C(O)C1CCN(CC(O)Cn2c3ccc(Cl)cc3c3cc(Cl)ccc32)CC1 (stereo not shown) [Compound 9] , using Escherichia coli ATCC 25922 data.
Ans: > 75 µM

Q: Give measured MIC for Clc1ccc2c(c1)c1cc(Cl)ccc1n2CCCN1CCOCC1 [Compound 18] (Escherichia coli ATCC 25922).
Ans: > 75 µM

###

For Escherichia coli ATCC 25922, measured MIC is reported for the entries below.
State the answer as a number, implicitly in µM.

Example results:
{"compound": "CCC(C)NCC(O)Cn1c2ccc(Cl)cc2c2cc(Cl)ccc21 (stereo not drawn)", "data value": 20}
{"compound": "CN1CCN(CCCn2c3ccc(Cl)cc3c3cc(Cl)ccc32)CC1", "data value": 75}

Q: Give the observed MIC of CN(C)CCCCn1c2ccc(Cl)cc2c2cc(Cl)ccc21 for Escherichia coli ATCC 25922.
Ans: 75

Q: Provide MIC, recorded with Escherichia coli ATCC 25922, of CN(C)CCCn1c2ccc(Cl)cc2c2cc(Cl)ccc21
Ans: 75

###

Target: S. cerevisiae H^+-ATPase (Saccharomyces cerevisiae, UniProt P05030)
Construct: transformed with the full-length cDNA of the S. cerevisiae plasma membrane H^+-ATPase isoform PMA1; made in house; host or cells: S. cerevisiae RS72
Sequence (P05030 whole entry, canonical isoform): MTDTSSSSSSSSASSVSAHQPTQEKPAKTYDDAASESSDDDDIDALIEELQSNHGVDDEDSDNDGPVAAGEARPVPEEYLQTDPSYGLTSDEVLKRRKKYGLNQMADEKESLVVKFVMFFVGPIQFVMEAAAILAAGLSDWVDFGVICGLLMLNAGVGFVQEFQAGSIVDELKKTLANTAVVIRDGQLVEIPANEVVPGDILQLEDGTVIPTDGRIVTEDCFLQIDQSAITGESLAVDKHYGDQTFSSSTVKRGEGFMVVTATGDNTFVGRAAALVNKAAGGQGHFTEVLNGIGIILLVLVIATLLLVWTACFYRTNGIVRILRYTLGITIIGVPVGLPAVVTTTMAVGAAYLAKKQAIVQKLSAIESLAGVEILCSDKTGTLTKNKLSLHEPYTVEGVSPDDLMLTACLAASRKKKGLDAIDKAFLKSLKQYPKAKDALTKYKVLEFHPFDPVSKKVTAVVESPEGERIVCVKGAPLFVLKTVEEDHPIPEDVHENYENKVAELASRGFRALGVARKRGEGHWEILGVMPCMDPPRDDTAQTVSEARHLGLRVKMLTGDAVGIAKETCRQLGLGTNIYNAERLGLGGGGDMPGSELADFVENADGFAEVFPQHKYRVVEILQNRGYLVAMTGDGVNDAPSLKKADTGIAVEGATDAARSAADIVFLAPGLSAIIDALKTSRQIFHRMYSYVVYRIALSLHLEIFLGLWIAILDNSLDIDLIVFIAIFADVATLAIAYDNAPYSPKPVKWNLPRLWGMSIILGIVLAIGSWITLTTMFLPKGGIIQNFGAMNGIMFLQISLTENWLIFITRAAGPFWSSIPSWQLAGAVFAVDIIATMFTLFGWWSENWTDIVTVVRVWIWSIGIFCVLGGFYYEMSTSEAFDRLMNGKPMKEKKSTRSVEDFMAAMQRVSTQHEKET
Assay: NADH-coupled ATPase assay, initial rate of ATP hydrolysis
Format: biochemical
Settings: 1 mM ATP, pH 7, n = 3
endpoint name: pIC50
Lab note — pIC50 values are minus log10 of concentrations in M.

Observe how each entry below is paired with its result.
{"compound": "OC(CN1CCOCC1)Cn1c2ccc(Cl)cc2c2cc(Cl)ccc21 (stereo not drawn)", "pIC50": 4.53}
{"compound": "OC(Cn1ccnc1)Cn1c2ccc(Cl)cc2c2cc(Cl)ccc21 (stereo not drawn)", "pIC50": 4.11}

// switching to the query compound
Q: Give recorded pIC50. CCC(C)NCC(O)Cn1c2ccc(Cl)cc2c2cc(Cl)ccc21 (stereo not drawn)
Ans: 5.35

###

Target: Mammalian Na^+,K^+-ATPase (Sus scrofa)
Construct: prepared per Klodos et al., 2002)
Assay: Colorimetric ATPase assay, pig kidney membranes
Details: pH 7, n = 3; read-out: ATP hydrolysis IC50 Mammalian Na^+,K^+-ATPase
Procedure: To investigate the H^+-ATPase inhibitory effect of the compounds we isolated plasma membranes containing H^+-ATPase from S. cerevisiae and C. albicans cells.[15] […] ATPase activity was determined by a colorimetric assay that measures the amount of inorganic phosphate liberated over time, as described in Kjellerup et al., 2017.[15] […] The compound libraries were purchased from Enamine Ltd, Ukraine and Chembridge Corp, USA. […] Absorption was measured at 860 nm after an additional 30 minutes incubation at RT.
endpoint name: pIC50
Scale note: pIC50 = -log10(concentration in M).

Answered cases to consult:
{"molecule": "Clc1ccc2c(c1)c1cc(Cl)ccc1n2CCCN1CCOCC1", "data value": 5.11}
{"molecule": "OC(Cn1ccnc1)Cn1c2ccc(Cl)cc2c2cc(Cl)ccc21 (stereo not shown)", "data value": 4.69}

Q: Give the value of pIC50 reported for the following: O=C(O)C1CCN(CC(O)Cn2c3ccc(Cl)cc3c3cc(Cl)ccc32)CC1 (stereo not shown)
Ans: 5.40
